Kindly state viability, T/C for each of the entries shown.
Tested on: 997726-040-R-J2-PDC tumor spheroids, viability
assayProtocol: Anticancer human tumor 997726-040-R-J2-PDC patient-derived squamous cell lung carcinoma cell line growth inhibition [PI3K]
measurementSetup: second compound 0.00316 µM; first compound 0.000316 µM; hits give low values; spheroids with HUVEC and MSC
Numbers only, in %.

Look over these answered cases.
>>> experimentalvalue("CC(C)n1nc(-c2ccc3oc(N)nc3c2)c2c(N)ncnc21 + CC(Nc1ccc2c(c1)OCCn1cc(N3C(=O)OCC3C(F)F)nc1-2)C(N)=O")
79
>>> experimentalvalue("CC(C)n1nc(-c2ccc3oc(N)nc3c2)c2c(N)ncnc21 + COc1c(OCCCN2CCOCC2)ccc2c3n(c(=NC(=O)c4cnc(N)nc4)nc12)CCN3")
74
>>> experimentalvalue("Cn1ncnc1[C@H]1c2n[nH]c(=O)c3cc(F)cc(c23)N[C@@H]1c1ccc(F)cc1 + COc1c(OCCCN2CCOCC2)ccc2c3n(c(=NC(=O)c4cnc(N)nc4)nc12)CCN3")
76.4
>>> experimentalvalue("Cn1ncnc1[C@H]1c2n[nH]c(=O)c3cc(F)cc(c23)N[C@@H]1c1ccc(F)cc1 + CC(Nc1ccc2c(c1)OCCn1cc(N3C(=O)OCC3C(F)F)nc1-2)C(N)=O")
84.4
>>> experimentalvalue("CC(=O)c1c(C)c2cnc(Nc3ccc(N4CCNCC4)cn3)nc2n(C2CCCC2)c1=O + CC(Nc1ccc2c(c1)OCCn1cc(N3C(=O)OCC3C(F)F)nc1-2)C(N)=O")
94.9

Alright, here's another molecule for you.
input: Consider the molecule CC(=O)c1c(C)c2cnc(Nc3ccc(N4CCNCC4)cn3)nc2n(C2CCCC2)c1=O + COc1c(OCCCN2CCOCC2)ccc2c3n(c(=NC(=O)c4cnc(N)nc4)nc12)CCN3 . State its measured viability, T/C.
output: 73

====

Test system: 997726-040-R-J2-PDC tumor spheroids, viability
assayProtocol: Anticancer human tumor 997726-040-R-J2-PDC cell line growth inhibition [PI3K]; active = viability on the fitted dose curve at most 10% of control; inactive = the rest;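 note: spheroids exposed to compounds for seven days before readout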
measurementSetup: second compound 0.316 µM; first compound 0.01 µM; spheroids with HUVEC and MSC
Could you please pick one outcome from this set? active, inactive

Take a look at these entries with their results.
>>> grouplabel("CC(=O)c1c(C)c2cnc(Nc3ccc(N4CCNCC4)cn3)nc2n(C2CCCC2)c1=O + COc1c(OCCCN2CCOCC2)ccc2c3n(c(=NC(=O)c4cnc(N)nc4)nc12)CCN3")
"active"
>>> grouplabel("Cn1ncnc1[C@H]1c2n[nH]c(=O)c3cc(F)cc(c23)N[C@@H]1c1ccc(F)cc1 + CC(Nc1ccc2c(c1)OCCn1cc(N3C(=O)OCC3C(F)F)nc1-2)C(N)=O")
"inactive"

input: Dear colleague, could you share the recorded outcome for Cn1ncnc1[C@H]1c2n[nH]c(=O)c3cc(F)cc(c23)N[C@@H]1c1ccc(F)cc1 + COc1c(OCCCN2CCOCC2)ccc2c3n(c(=NC(=O)c4cnc(N)nc4)nc12)CCN3 when you have a moment?
output: active

input: Query: recorded result category for CC(C)n1nc(-c2ccc3oc(N)nc3c2)c2c(N)ncnc21 + CC(Nc1ncnc2nc[nH]c12)c1cc2cccc(Cl)c2c(=O)n1-c1ccccc1 in this test
output: inactive

input: For CC(C)n1nc(-c2ccc3oc(N)nc3c2)c2c(N)ncnc21 + CC(Nc1ccc2c(c1)OCCn1cc(N3C(=O)OCC3C(F)F)nc1-2)C(N)=O , what call appears in the results of this test?
output: inactive
